# System: Dengue virus
# assay.summary: Inhibition of Dengue virus NS2B-NS3 protease using Abz-NleKRRS-3-(NO2)Y as substrate at 50 uM preincubated for 15 mins measured every sec for 15 mins by fluorimetric analysis
The source made the active and inactive calls.
readout.name: inhibition

>  <structure.notation>
COc1ccc(/C=C2\NC(=S)NC2=O)cc1OC

>  <inhibition>
44%

$$$$
>  <structure.notation>
COc1ccc(/C=C2\NC(=S)NC2=O)cc1

>  <inhibition>
50%

$$$$
>  <structure.notation>
O=C1NC(=O)/C(=C/c2ccc(Br)s2)N1

>  <inhibition>
22%

$$$$
>  <structure.notation>
COc1ccc(/C=C2\SC(=S)NC2=O)cc1

>  <inhibition>
42%

$$$$
>  <structure.notation>
Cn1cc(/C=C2\NC(=S)NC2=O)c2ccccc21

>  <inhibition>
50%

$$$$
>  <structure.notation>
O=C1NC(=O)/C(=C/c2ccc(Br)s2)S1

>  <inhibition>
inactive

$$$$
>  <structure.notation>
CC(=O)N1C(=S)NC(=O)[C@@H]1Cc1ccc(O)cc1

>  <inhibition>
inactive

$$$$
>  <structure.notation>
COc1ccc(/C=C/C=C2\NC(=S)NC2=O)cc1

>  <inhibition>
13%

$$$$

Problem: Give the reported value of inhibition for this record: `O=C1CSC(=O)N1`
Result: 13%

Problem: Give the reported value of inhibition for this record: `CC(=O)N1C(=S)NC(=O)[C@H]1Cc1ccccc1`
Result: inactive

====

# System: Dengue virus
# assay.summary: Inhibition of Dengue virus NS2B-NS3 protease using Abz-NleKRRS-3-(NO2)Y as substrate at 50 uM preincubated for 15 mins measured every sec for 15 mins by fluorimetric analysis
readout.name: inhibition

For orientation, consider the following solved cases.
>  <structure.notation>
O=C1NC(=O)/C(=C/c2ccco2)S1

>  <inhibition>
20%

$$$$
>  <structure.notation>
O=C1NC(=O)/C(=C/c2ccc(O)c(O)c2)S1

>  <inhibition>
44%

$$$$
>  <structure.notation>
O=C1NC(=S)N[C@@H]1Cc1ccccc1

>  <inhibition>
14%

$$$$
>  <structure.notation>
C/C(=C1/SC(=S)NC1=O)c1cccs1

>  <inhibition>
45%

$$$$
>  <structure.notation>
O=C1NC(=S)S/C1=C\C=C\c1ccco1

>  <inhibition>
26%

$$$$

Now take the following compound into account.
Problem: Give the reported value of inhibition for this record: `O=C1NC(=S)N/C1=C\c1cc2ccccc2[nH]1`
Result: 44%

====

# System: Escherichia coli
# assay.summary: Inhibition of Escherichia coli MurA using PEP as substrate assessed as inorganic phosphate release at 25 uM preincubated for 10 mins measured after 60 mins […]
Calls of active or inactive are those of the source.
readout.name: inhibition

>  <compound>
COc1ccccc1/C=C1\NC(=O)NC1=O

>  <assay.system>
Escherichia coli

>  <inhibition>
inactive

$$$$
>  <compound>
CC(C)C[C@@H]1NC(=S)NC1=O

>  <assay.system>
Escherichia coli

>  <inhibition>
20%

$$$$
>  <compound>
O=C1NC(=S)S/C1=C\c1c(F)c(F)c(F)c(F)c1F

>  <assay.system>
Escherichia coli

>  <inhibition>
inactive

$$$$
>  <compound>
O=C1NC(=S)S/C1=C\c1ccco1

>  <assay.system>
Escherichia coli

>  <inhibition>
17%

$$$$
>  <compound>
COc1cccc(/C=C2\SC(=S)NC2=O)c1

>  <assay.system>
Escherichia coli

>  <inhibition>
10%

$$$$

Problem: Give the reported value of inhibition for this record: `CN(C)c1ccc(/C=C2\NC(=S)NC2=O)cc1`
Result: 51%

Problem: Give the reported value of inhibition for this record: `O=C1NC(=O)/C(=C/c2cccc(O)c2)N1`
Result: inactive

Problem: Give the reported value of inhibition for this record: `O=C1NC(=O)/C(=C/c2sccc2Cl)S1`
Result: 12%

Problem: Give the reported value of inhibition for this record: `O=C1NC(=S)S/C1=C\c1ccc(O)c(O)c1`
Result: 89%

Problem: Give the reported value of inhibition for this record: `CC(=O)N1C(=S)NC(=O)[C@@H]1Cc1c[nH]c2ccccc12`
Result: inactive

Problem: Give the reported value of inhibition for this record: `O=C1NC(=O)/C(=C/c2ccco2)S1`
Result: 41%

Problem: Give the reported value of inhibition for this record: `COc1cccc(/C=C2\NC(=O)NC2=O)c1`
Result: inactive

Problem: Give the reported value of inhibition for this record: `O=C1NC(=O)/C(=C/c2sccc2Br)S1`
Result: 44%

Problem: Give the reported value of inhibition for this record: `O=C1NC(=O)/C(=C/c2c(F)c(F)c(F)c(F)c2F)S1`
Result: inactive

Problem: Give the reported value of inhibition for this record: `Cn1cc(/C=C2\NC(=S)NC2=O)c2ccccc21`
Result: 16%

Problem: Give the reported value of inhibition for this record: `COc1ccc(/C=C2\NC(=O)NC2=O)cc1`
Result: inactive

Problem: Give the reported value of inhibition for this record: O=C1NC(=O)C(Cc2ccccc2)S1 (configuration not stated)
Result: inactive
